Tested on: HeLa Kyoto;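 note: HeLa Kyoto cells arrested at G1/S by double thymidine block, proteins quantified by TMT10plex mass spectrometry in mild NP-40 versus SDS extracts, three biological replicates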
protocol: solubility in G1/S (NP-40 vs SDS abundance) (log2 ratio); higher = more soluble
assaySetup: cell cycle stage: G1/S
endpointName: solubility in G1/S (log2)
Number only, no unit.

Identify solubility in G1/S (log2) associated with the sequence MWPPCGTLRTLALARSRGARACSGDGGVSYTQGQSPEPRTREYFYYVDHQGQLFLDDSKMKNFITCFKDPQFLVTFFSRLRPNRSGRYEAAFPFLSPCGRERNFLRCEDRPVVFTHLLTADHGPPRLSYCGGGEALAVPFEPARLLPLAANGRLYHPAPERAGGVGLVRSALAFELSACFEYGPGAPALPSHVRWQGRRLALTMDLAPLLLAARSP [C8ORF82]
0.265

Input MSHTEVKLKIPFGNKLLDAVCLVPNKSLTYGIILTHGASGDMNLPHLMSLASHLASHGFFCLRFTCKGLNIVHRIKAYKSVLNYLKTSGEYKLAGVFLGGRSMGSRAAASVMCHIEPDDGDDFVRGLICISYPLHHPKQQHKLRDEDLFRLKEPVLFVSGSADEMCEKNLLEKVAQKMQAPHKIHWIEKANHSMAVKGRSTNDVFKEINTQILFWIQEITEMDKKCH [TEX30] , output reported solubility in G1/S (log2).
0.199

Indicate the recorded solubility in G1/S (log2) value for this sequence: MAAAAAAAVAGVGRGGGGAEPRQERSRARGWAGVERSEGRRMEPGEELEEEGSPGGREDGFTAEHLAAEAMAADMDPWLVFDARTTPATELDAWLAKYPPSQVTRYGDPGSPNSEPVGWIAVYGQGYSPNSGDVQGLQAAWEALQTSGRPITPGTLRQLAITHHVLSGKWLMHLAPGFKLDHAWAGIARAVVEGQLQVAKVSPRAKEGGRQVICVYTDDFTDRLGVLEADSAIRAAGIKCLLTYKPDVYTYLGIYRANRWHLCPTLYESRFQLGGSARGSRVLDRANNVELT [C11ORF68]
0.585

Hello, please tell me recorded solubility in G1/S (log2) for this one: MAMLVLVPGRVMRPLGGQLWRFLPRGLEFWGPAEGTARVLLRQFCARQAEAWRASGRPGYCLGTRPLSTARPPPPWSQKGPGDSTRPSKPGPVSWKSLAITFAIGGALLAGMKHVKKEKAEKLEKERQRHIGKPLLGGPFSLTTHTGERKTDKDYLGQWLLIYFGFTHCPDVCPEELEKMIQVVDEIDSITTLPDLTPLFISIDPERDTKEAIANYVKEFSPKLVGLTGTREEVDQVARAYRVYYSPGPKDEDEDYIVDHTIIMYLIGPDGEFLDYFGQNKRKGEIAASIATHMRPYRKKS [SCO1]
0.47

Give the measured solubility in G1/S (log2) for MAVNVYSTSVTSDNLSRHDMLAWINESLQLNLTKIEQLCSGAAYCQFMDMLFPGSIALKKVKFQAKLEHEYIQNFKILQAGFKRMGVDKIIPVDKLVKGKFQDNFEFVQWFKKFFDANYDGKDYDPVAARQGQETAVAPSLVAPALNKPKKPLTSSSAAPQRPISTQRTAAAPKAGPGVVRKNPGVGNGDDEAAELMQQVNVLKLTVEDLEKERDFYFGKLRNIELICQENEGENDPVLQRIVDILYATDEGFVIPDEGGPQEEQEEY [MAPRE1]
0.394

Find the measured solubility in G1/S (log2) of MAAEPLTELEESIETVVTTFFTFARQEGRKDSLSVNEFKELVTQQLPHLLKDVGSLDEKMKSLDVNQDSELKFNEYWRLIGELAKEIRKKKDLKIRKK [S100A13] and report it.
-0.421

Name the recorded solubility in G1/S (log2) of the item MPVAGSELPRRPLPPAAQERDAEPRPPHGELQYLGQIQHILRCGVRKDDRTGTGTLSVFGMQARYSLRDEFPLLTTKRVFWKGVLEELLWFIKGSTNAKELSSKGVKIWDANGSRDFLDSLGFSTREEGDLGPVYGFQWRHFGAEYRDMESDYSGQGVDQLQRVIDTIKTNPDDRRIIMCAWNPRDLPLMALPPCHALCQFYVVNSELSCQLYQRSGDMGLGVPFNIASYALLTYMIAHITGLKPGDFIHTLGDAHIYLNHIEPLKIQLQREPRPFPKLRILRKVEKIDDFKAEDFQIEGYNPHPTIKMEMAV [TYMS] in your answer.
-0.0779

Please report the measured solubility in G1/S (log2) for MSVFGKLFGAGGGKAGKGGPTPQEAIQRLRDTEEMLSKKQEFLEKKIEQELTAAKKHGTKNKRAALQALKRKKRYEKQLAQIDGTLSTIEFQREALENANTNTEVLKNMGYAAKAMKAAHDNMDIDKVDELMQDIADQQELAEEISTAISKPVGFGEEFDEDELMAELEELEQEELDKNLLEISGPETVPLPNVPSIALPSKPAKKKEEEDDDMKELENWAGSM [CHMP4B]
0.507

For the sequence MATALALRSLYRARPSLRCPPVELPWAPRRGHRLSPADDELYQRTRISLLQREAAQAMYIDSYNSRGFMINGNRVLGPCALLPHSVVQWNVGSHQDITEDSFSLFWLLEPRIEIVVVGTGDRTERLQSQVLQAMRQRGIAVEVQDTPNACATFNFLCHEGRVTGAALIPPPGGTSLTSLGQAAQ [NDUFAF3] , give its measured solubility in G1/S (log2) value.
0.117

Please give the documented solubility in G1/S (log2) of MAAQKDQQKDAEAEGLSGTTLLPKLIPSGAGREWLERRRATIRPWSTFVDQQRFSRPRNLGELCQRLVRNVEYYQSNYVFVFLGLILYCVVTSPMLLVALAVFFGACYILYLRTLESKLVLFGREVSPAHQYALAGGISFPFFWLAGAGSAVFWVLGATLVVIGSHAAFHQIEAVDGEELQMEPV [RABAC1]
-0.392

Provide measured solubility in G1/S (log2) value, entry: MGEPQGSMRILVTGGSGLVGKAIQKVVADGAGLPGEDWVFVSSKDADLTDTAQTRALFEKVQPTHVIHLAAMVGGLFRNIKYNLDFWRKNVHMNDNVLHSAFEVGARKVVSCLSTCIFPDKTTYPIDETMIHNGPPHNSNFGYSYAKRMIDVQNRAYFQQYGCTFTAVIPTNVFGPHDNFNIEDGHVLPGLIHKVHLAKSSGSALTVWGTGNPRRQFIYSLDLAQLFIWVLREYNEVEPIILSVGEEDEVSIKEAAEAVVEAMDFHGEVTFDTTKSDGQFKKTASNSKLRTYLPDFRFTPFKQAVKETCAWFTDNYEQARK [TSTA3]
0.141
